Test system: Enterococcus faecium ATCC 700221 (VRE)
Test: Broth microdilution MIC, E. faecium ATCC 700221 (VRE)
Format: cell-based
Conditions: Enterococcus faecium; broth microdilution, 37° C., 20 hours; read-out: MIC E. faecium ATCC 700221 (VRE)
Description: Bacteria tested are Staphylococcus aureus NRS384 (a methicillin-resistant Staphylococcus aureus, MRSA), Staphylococcus aureus ATCC 29213 (a methicillin-sensitive Staphylococcus aureus, MSSA), Streptococcus pneumoniae ATCC 49619, Enterococcus faecalis ATCC 29212, Enterococcus faecium ATCC 700221 (a vancomycin-resistant enterococcus, VRE), Bacillus subtilis ATCC 6633, and Escherichia coli ATCC 25922. […]
Endpoint Name: MIC (µg/mL)

These recorded examples may help you get a feel for the data.
O=c1[nH]c(NCc2ccc(Cl)c(Cl)c2)nc2cnn(CC(O)CO)c12 (stereo not drawn)
8
Cl.O=C(c1ccncc1)N1CCC(n2ncc3nc(NCc4ccc(Cl)c(Cl)c4)[nH]c(=O)c32)CC1
2
O=c1[nH]c(NCc2ccc(Cl)c(Cl)c2)nc2cnn(C3COC3)c12
2
O=c1[nH]c(NCc2ccc(Cl)c(Cl)c2)nc2cn(-c3ncccn3)nc12
32
O=c1[nH]c(NCc2ccc(Cl)c(Cl)c2)nc2c(F)n[nH]c12
4

A = CN(C)C(CO)C(=O)N1CCC(n2ncc3nc(NCc4ccc(Cl)c(Cl)c4)[nH]c(=O)c32)CC1.Cl (stereo not drawn)
B = O=c1[nH]c(NCc2ccc(Cl)c(Cl)c2)nc2cnn(CCOCCOCCO)c12
C = CC(C)OC(=O)CCCCn1ncc2nc(NCc3ccc(Cl)c(Cl)c3)[nH]c(=O)c21
Rank ascending by MIC. Put the labels in the order asked and list them.
C, B, A
(C: 2 µg/mL, B: 8 µg/mL, A: 16 µg/mL)

1 = O=C1CCCN1CCn1ncc2nc(NCc3ccc(Cl)c(Cl)c3)[nH]c(=O)c21
2 = CN1CCCC(c2nc(Cn3ncc4nc(NCc5ccc(Cl)c(Cl)c5)[nH]c(=O)c43)co2)C1.Cl (stereo not drawn)
Please let me know which one, 1 or 2 , has a lower measured MIC value. Your answer should be the label of the entry you select.
1
(1: 4 µg/mL, 2: 8 µg/mL)

A = Cl.O=C(c1cc[nH]n1)N1CCC(n2ncc3nc(NCc4ccc(Cl)c(Cl)c4)[nH]c(=O)c32)CC1
B = CCOC(=O)CCCCn1ncc2nc(NCc3ccc(Cl)c(Cl)c3)[nH]c(=O)c21
C = Cn1ncc2nc(NCc3ccc(Cl)cc3)[nH]c(=O)c21
D = O=c1[nH]c(NCc2ccc(Cl)c(Cl)c2)nc2cnn(C[C@H]3NC[C@H](O)[C@@H](O)[C@@H]3O)c12
E = O=c1[nH]c(NCc2ccc(Cl)c(Cl)c2)nc2cnn(CCCO)c12
Write the entries in order, lowest recorded MIC first. Provide the labels, sequenced as the question asks.
E, B, A, C, D
